Readings of IC50 for the listed molecules
tested.system: c-Met (cytoplasmic domain) (Homo sapiens, UniProt P08581)
Construct: 10 ng/mL c-Met (cytoplasmic domain, Invitrogen Corporation #PV3143); purchased Invitrogen Corporation PV3143
Sequence (P08581 956-1390 limits assumed): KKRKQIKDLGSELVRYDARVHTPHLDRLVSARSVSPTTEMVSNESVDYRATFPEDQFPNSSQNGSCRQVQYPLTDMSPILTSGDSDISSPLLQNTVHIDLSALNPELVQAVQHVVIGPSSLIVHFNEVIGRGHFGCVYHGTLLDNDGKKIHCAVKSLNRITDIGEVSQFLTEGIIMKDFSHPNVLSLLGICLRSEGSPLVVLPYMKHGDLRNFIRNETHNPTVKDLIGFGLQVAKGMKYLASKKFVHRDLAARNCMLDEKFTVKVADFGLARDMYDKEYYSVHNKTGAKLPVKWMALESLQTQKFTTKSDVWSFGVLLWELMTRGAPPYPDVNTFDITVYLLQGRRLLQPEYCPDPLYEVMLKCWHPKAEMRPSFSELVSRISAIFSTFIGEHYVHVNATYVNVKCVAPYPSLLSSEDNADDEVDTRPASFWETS
assay.procedure: c-Met Kinase Assay (same methods as for ALK, with modifications)
Format: biochemical
details: 1 μM ATP (Km level); read-out: cMet Activity (c-Met Kinase Inhibition, IC50)

These solved cases illustrate the format of a correct answer.
>>> result("Cc1ccnc(-c2ccccc2Nc2nc(Nc3ccc4c(c3)C(C)(C)CCC(=O)N4)ncc2Cl)c1")
"> 10 µM"
>>> result("CS(=O)(=O)N[C@@H]1CCCC[C@H]1Nc1nc(Nc2ccc3c(c2)CCC(NCC(F)(F)F)CC3)ncc1Cl (stereo partly shown)")
"0.1 to 1 µM"
>>> result("COc1c(Nc2ncc(Cl)c(Nc3ccccc3S(=O)(=O)N(C)C)n2)ccc2c1CCC(NCC(F)(F)F)CC2 (stereo not shown)")
"> 10 µM"

Data request: Reported IC50, molecule COCCN1CCc2cc(Nc3ncc(Cl)c(Nc4ccc(Cl)cc4S(=O)(=O)N(C)C)n3)c(OC)cc2CC1 : ____
Data returned: > 10 µM

Data request: Reported IC50, molecule CNC(=O)CN1CCc2cc(Nc3ncc(F)c(Nc4ccc(N5CCOCC5)cc4OC)n3)c(OC)cc2CC1 : ____
Data returned: > 10 µM

Data request: Reported IC50, molecule Cc1ccc(-c2ccccc2Nc2nc(Nc3ccc4c(c3)CCCC(=O)N4C)ncc2Cl)nc1 : ____
Data returned: 1 to 10 µM

Data request: Reported IC50, molecule Cn1ccnc1-c1ccccc1Nc1nc(Nc2ccc3c(c2)CCCC(=O)N3)ncc1Cl : ____
Data returned: > 10 µM
